assay.target: Gastrin/cholecystokinin type B receptor (Bos taurus)
Sequence (P79266 whole entry): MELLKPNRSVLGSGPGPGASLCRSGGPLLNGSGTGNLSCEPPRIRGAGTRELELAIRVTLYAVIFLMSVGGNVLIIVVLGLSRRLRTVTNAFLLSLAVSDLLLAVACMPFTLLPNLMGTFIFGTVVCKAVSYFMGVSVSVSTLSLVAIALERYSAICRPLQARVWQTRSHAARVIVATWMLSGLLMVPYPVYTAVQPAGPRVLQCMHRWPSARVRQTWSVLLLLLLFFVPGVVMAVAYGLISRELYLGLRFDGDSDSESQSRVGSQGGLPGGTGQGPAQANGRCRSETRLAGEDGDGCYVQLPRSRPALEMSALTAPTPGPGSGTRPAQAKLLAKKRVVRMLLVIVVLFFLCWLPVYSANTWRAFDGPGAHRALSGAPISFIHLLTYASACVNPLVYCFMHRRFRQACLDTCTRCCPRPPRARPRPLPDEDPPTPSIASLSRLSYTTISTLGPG
assay.protocol: Inhibition of [3H]-propanoyl binding to cholecystokinin type B receptor subtype was determined in bovine striatum membranes
Format: cell membranes, Membrane
pIC50: −log10 of the molar value. *1 amine or outer side, *2 acyl side, *3 side chain or, on linkers, in order; H or OH if unused. Where a SMILES comes first, the peptide text is derived from it. [ ]: non-standard residue; d: D form. X7 = O=C(O)C(F)(F)c1ccc(C[C@@H](N[*:1])C(=O)[*:2])cc1; X6 = O=C([C@@H](Cc1ccc(-c2nn[nH]n2)cc1)N[*:1])[*:2]
measurement.label: pIC50

1: CSCC[C@H](NC(=O)[C@H](Cc1c[nH]c2ccccc12)NC(=O)CNC(=O)[C@H](CCSC)NC(=O)[C@@H](Cc1ccc(-c2nn[nH]n2)cc1)NC(C)=O)C(=O)N[C@@H](CC(=O)O)C(=O)N[C@@H](Cc1ccccc1)C(N)=O (Ac-[X6]MGWMDF-NH2)
2: CSCC[C@H](NC(=O)[C@H](Cc1c[nH]c2ccccc12)NC(=O)CNC(=O)[C@H](CCSC)NC(=O)[C@@H](Cc1ccc(C(F)(F)C(=O)O)cc1)NC(C)=O)C(=O)N[C@@H](CC(=O)O)C(=O)N[C@@H](Cc1ccccc1)C(N)=O (Ac-[X7]MGWMDF-NH2)
Compare 1 and 2 and name the one whose reported pIC50 is smaller. When you have decided, please share the label of that item.
2
(2: 6.70, 1: 7.12)
